Data credit: patent US10479780B2

# ASSAYED TARGET: human Src enzyme (Homo sapiens, UniProt P12931)
# Construct: purchased Carna Biosciences, Inc. 08-173
# Sequence (P12931 whole entry): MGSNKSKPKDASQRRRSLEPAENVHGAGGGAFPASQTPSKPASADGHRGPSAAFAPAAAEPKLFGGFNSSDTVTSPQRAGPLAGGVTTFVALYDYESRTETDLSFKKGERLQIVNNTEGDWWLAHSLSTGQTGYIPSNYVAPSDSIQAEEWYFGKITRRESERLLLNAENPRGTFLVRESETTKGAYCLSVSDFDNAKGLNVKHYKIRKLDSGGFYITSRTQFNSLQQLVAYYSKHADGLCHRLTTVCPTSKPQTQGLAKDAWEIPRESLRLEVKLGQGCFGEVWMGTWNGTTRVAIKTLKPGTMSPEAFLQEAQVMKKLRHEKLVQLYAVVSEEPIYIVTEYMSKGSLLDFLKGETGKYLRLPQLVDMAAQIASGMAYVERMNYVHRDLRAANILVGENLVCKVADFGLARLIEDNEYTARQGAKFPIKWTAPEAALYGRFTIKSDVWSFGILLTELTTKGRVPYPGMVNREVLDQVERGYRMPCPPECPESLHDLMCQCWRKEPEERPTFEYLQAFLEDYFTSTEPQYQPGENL
# EXPERIMENTAL DETAILS: Src enzyme inhibitory activity (time-resolved fluorometry, biotinylated peptide phosphorylation)
# Assay type: biochemical
# SETTINGS: biotinylated peptide phosphorylation, read-out: SRC_IC50
pIC50: −log10 of the molar value.
OUTCOME MEASURE: pIC50

Cc1cc(Oc2ccccc2F)ccc1-n1ncc(C(=O)c2cc3cc(OC(F)F)c(C4CCN(S(=O)(=O)C5CC5)CC4)cc3[nH]2)c1N    7.66
Cc1cc2cc(C(=O)c3cnn(-c4cnc(Oc5cccc(Cl)c5)cc4C)c3N)[nH]c2cc1NS(C)(=O)=O    6.80
Cc1cc(Oc2cccc(F)c2F)ncc1-n1ncc(C(=O)c2cc3cc(Cl)c(NS(C)(=O)=O)cc3[nH]2)c1N    6.66
Cc1cc2cc(C(=O)c3cnn(-c4cnc(Oc5cccc(Cl)c5)cc4C)c3N)[nH]c2cc1N1CCCS1(=O)=O    6.96
Cc1cc(Oc2c(F)cccc2F)ncc1-n1ncc(C(=O)c2cc3cc(OCC(F)F)c(NS(=O)(=O)c4cccc(F)n4)cc3[nH]2)c1N    6.39

1 = Cc1cc(Oc2ccccc2F)ccc1-n1ncc(C(=O)c2cc3cc(F)c(N4C(=O)CNC4=O)cc3[nH]2)c1N
2 = Cc1cc2cc(C(=O)c3cnn(-c4cnc(Oc5c(F)cccc5F)cc4C)c3N)[nH]c2cc1NS(=O)(=O)c1cncc(F)c1
3 = Cc1cc2cc(C(=O)c3cnn(-c4ccc(Oc5ccccc5F)cc4C)c3N)[nH]c2cc1NS(=O)(=O)c1cccc(F)n1
4 = Cc1cc2cc(C(=O)c3cnn(-c4cnc(Oc5c(F)cccc5F)cc4C)c3N)[nH]c2cc1NS(=O)(=O)CCCF
5 = Cc1cc(Oc2ccccc2F)ncc1-n1ncc(C(=O)c2cc3cc(F)c(NS(=O)(=O)NCCO)cc3[nH]2)c1N
Input: List these items ordered by pIC50, big to small. Put the labels in the requested order and list them out.
Output: 1, 4, 5, 3, 2
(1: 7.92, 4: 7.43, 5: 7.15, 3: 6.55, 2: 6.17)

a = Cc1cc(Oc2c(F)cccc2F)ncc1-n1ncc(C(=O)c2cc3cc(OCC(F)F)c(N4CCN(S(C)(=O)=O)CC4)cc3[nH]2)c1N
b = Cc1cc(Oc2ccccc2F)ccc1-n1ncc(C(=O)c2cc3cc(F)c(NS(=O)(=O)NC4(C)COC4)cc3[nH]2)c1N
c = Cc1cc(Oc2c(F)cccc2F)ncc1-n1ncc(C(=O)c2cc3cc(F)c(NS(=O)(=O)c4cncc(Cl)c4)cc3[nH]2)c1N
Input: List these items ordered by pIC50, big to small. Put the labels in the requested order and list them out.
Output: a, b, c

###

# ASSAYED TARGET: human Yes1 enzyme (Homo sapiens, UniProt P07947)
# Construct: made in house
# Sequence (P07947 whole entry): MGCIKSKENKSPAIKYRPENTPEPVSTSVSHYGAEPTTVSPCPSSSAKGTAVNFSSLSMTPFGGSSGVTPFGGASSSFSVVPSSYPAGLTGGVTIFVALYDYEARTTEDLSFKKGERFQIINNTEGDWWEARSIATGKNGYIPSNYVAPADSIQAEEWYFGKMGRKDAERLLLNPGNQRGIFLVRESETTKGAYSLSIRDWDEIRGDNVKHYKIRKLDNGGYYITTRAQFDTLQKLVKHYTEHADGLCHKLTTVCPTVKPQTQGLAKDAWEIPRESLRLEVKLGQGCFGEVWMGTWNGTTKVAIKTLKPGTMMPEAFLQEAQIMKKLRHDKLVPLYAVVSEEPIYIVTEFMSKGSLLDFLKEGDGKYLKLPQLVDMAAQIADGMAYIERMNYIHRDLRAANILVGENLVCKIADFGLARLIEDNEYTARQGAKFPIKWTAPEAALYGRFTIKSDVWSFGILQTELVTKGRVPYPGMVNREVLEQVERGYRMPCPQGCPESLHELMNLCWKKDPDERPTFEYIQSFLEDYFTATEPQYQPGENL
# EXPERIMENTAL DETAILS: Yes1 enzyme inhibitory activity (time-resolved fluorometry, biotinylated peptide phosphorylation)
# Type: biochemical
# SETTINGS: read-out: YES_IC50
OUTCOME MEASURE: IC50 (nM)

CC(=O)N1CCC(c2cc3[nH]c(C(=O)c4cnn(-c5c(C)cc(Oc6ccccc6F)cc5F)c4N)cc3cc2C)CC1    3.1

a = CC(C)N1CCC(c2cc3cc(C(=O)c4cnn(-c5ccc(Oc6ccccc6F)cc5)c4N)[nH]c3cc2F)CC1
b = Cc1cc(Oc2ccccc2F)ccc1-n1ncc(C(=O)c2cc3cc(OCC(F)F)c(N4C(=O)NC5(CCNCC5)C4=O)cc3[nH]2)c1N
Input: Smaller IC50 value? Options are a and b Indicate your choice by writing its label.
Output: b
